Values from paper PMC5540273

tested on: NEK1; settings: concentration: 1 μM, replicates: in singlicate; n = 1
# %Inh listing for each entry below

1. COc1ccc(Nc2nccc(N3CCC(NC(=O)Nc4ccc5c(c4)OCO5)C3)n2)cc1 (stereo not shown) ... 0%
2. CN1CCC(n2cnc(-c3ccc(F)cc3)c2-c2ccnc(NC3CCNCC3)n2)CC1 ... 0%
3. COC(=O)c1c(-c2ccccc2)c2cc(Cl)ccc2c(=O)n1Cc1ccc(S(C)(=O)=O)cc1 ... 0%
4. COc1ccc(Nc2nccc(N3CCC(NC(=O)c4cccc(NC(C)=O)c4)C3)n2)cc1 (stereo not shown) ... 6%
5. Cc1cc(N2CCC(NS(=O)(=O)c3ccc(F)cc3)CC2)nc(Nc2cccc(C#N)c2)n1.O=C(O)C(F)(F)F ... 55%
6. CCc1nc(-c2cccc(N(C)S(=O)(=O)c3ccccc3)c2)c(-c2ccnc(Nc3ccc(N4CCN(C(C)=O)CC4)nc3)n2)s1 ... 14%

// query Name the reported %Inh value associated with the compound `Nc1nc(-c2ccc3c(N)n[nH]c3c2)cc(N2CCC[C@@H](C(=O)Nc3ccccc3)C2)n1.O=C(O)C(F)(F)F.O=C(O)C(F)(F)F`
// result 0%

---

tested on: SRPK1
pKd: −log10 of the molar value.
OBSERVATION_TYPE: pKd

// query Name the reported pKd value associated with the molecule `Cl.O=S(=O)(c1cccc(F)c1)c1ccc(Nc2ncnc3cc(Br)sc23)cc1Cl`
// result < 5.00

---

system: CTK; construct: gene MATK
OBSERVATION_TYPE: Kd

// query Name the reported Kd value associated with the molecule `O=C(Nc1ccccc1)Nc1ccc(Oc2ccc3nccn3n2)cc1`
// result > 10 µM

---

# %Inh listing for each entry below
system: CDC2L1; construct: gene CDK11B; conditions: concentration: 1 μM, replicates: in singlicate; n = 1
Respond numerically; units are % and should not be typed.

1. COc1ccc(Nc2nccc(N3CCC(NC(=O)Nc4ccc5c(c4)OCO5)C3)n2)cc1 (stereo not drawn) ... 0
2. C[C@H]1CC[C@@H](C(=O)Nc2ccccc2)CN1c1cc(-c2ccc3c(N)n[nH]c3c2)nc(N)n1 ... 0
3. CCn1c(-c2ccncc2)nc2cnccc21 ... 9

// query Name the reported %Inh value associated with the compound `CN1CCC(n2cnc(-c3ccc(F)cc3)c2-c2ccnc(NC3CCNCC3)n2)CC1`
// result 0

// query Name the reported %Inh value associated with the compound `Clc1cccc(-c2nc(Nc3ccncc3)c3ccccc3n2)c1`
// result 0

---

tested on: ICK; settings: concentration: 1 μM, replicates: in singlicate; n = 1
OBSERVATION_TYPE: %Inh (%)
Respond numerically; units are % and should not be typed.

Worked examples, 3 compounds total:
1. Cl.O=S(=O)(c1cccc(F)c1)c1ccc(Nc2ncnc3cc(Br)sc23)cc1Cl [GSK306886] ... 0
2. OCCOCCn1ccc2ncnc(Nc3ccc(Oc4cccc(Cl)c4)c(Cl)c3)c21 ... 0
3. CC(C)(C)c1ccc(-n2cnc3c(N)ncnc32)cc1 [SKF-97263] ... 17

// query Name the reported %Inh value associated with the compound Nc1nc(-c2ccc3c(N)n[nH]c3c2)cc(N2CCCCC2)n1 [GSK2228768]
// result 0

// query Name the reported %Inh value associated with the compound `C[C@@H]1CCN(C(=O)CO)C[C@@H]1N(C)c1ncnc2[nH]ccc12`
// result 0

---

tested on: GRK1; conditions: concentration: 1 μM, replicates: in singlicate; n = 1
# %Inh listing for each entry below
Respond numerically; units are % and should not be typed.

1) Nc1nc(-c2cccnc2)c(-c2ccnc3ccccc23)s1 [GW684083] ... 0

// query Name the reported %Inh value associated with the compound `N#Cc1ccc(Oc2ccc(Nc3ncnc4cc[nH]c34)cc2Cl)cc1`
// result 27

// query Name the reported %Inh value associated with the compound CS(=O)(=O)CCNCc1nc(-c2ccc3ncnc(Nc4ccc(OCc5cccc(F)c5)c(Cl)c4)c3c2)cs1.Cl [GW583340]
// result 0

// query Name the reported %Inh value associated with the compound Cc1ccc(C)c(NC(=O)NCCNc2ccnc(Nc3ccc(F)cc3)n2)c1 [GSK1379878]
// result 0

// query Name the reported %Inh value associated with the compound Cc1ccc(O)cc1Nc1cc(C(F)(F)F)nc2ccc(-c3ccncc3)cc12 [GW630823]
// result 0

// query Name the reported %Inh value associated with the compound CCC(CC)(CC)n1cnc2c(N)ncnc21 [SKF-97620]
// result 40

// query Name the reported %Inh value associated with the compound C[C@H]1CC[C@@H](C(=O)Nc2ccccc2)CN1c1cc(-c2ccc3c(N)n[nH]c3c2)nc(N)n1 [GSK2283293]
// result 0

// query Name the reported %Inh value associated with the compound Nc1n[nH]c2nnc(-c3ccccc3)cc12 [SB-517389]
// result 0

// query Name the reported %Inh value associated with the compound `Cn1ccc2ncnc(Nc3ccc(Oc4cccc(Cl)c4)c(Cl)c3)c21`
// result 25

---

# %Inh listing for each entry below
tested on: TLK2; conditions: concentration: 1 μM, replicates: in singlicate; n = 1
Respond numerically; units are % and should not be typed.

1) C[C@@H]1CCN(C(=O)CO)C[C@@H]1N(C)c1ncnc2[nH]ccc12 ... 0
2) Cc1cccc(-c2nc(Nc3ccc4[nH]nnc4c3)c3ccccc3n2)n1 ... 0
3) COc1ccc(NC(=O)c2ccc(-c3cc(-c4nnc(C)o4)ccc3C)cc2)cc1 ... 0
4) COc1cc2ncnc(Nc3ccc(OCc4ccccc4Br)c(Cl)c3)c2cc1OC.Cl ... 0
5) N#Cc1ccc(Oc2ccc(Nc3ncnc4cc[nH]c34)cc2Cl)cc1 ... 0
6) FC(F)(F)c1cc(Nc2nccc(-c3c(-c4ccc(Cl)cc4)nn4ncccc34)n2)ccc1Cl ... 0
7) CCn1c(-c2ccncc2)nc2cnccc21 ... 0
8) OCCOCCn1ccc2ncnc(Nc3ccc(Oc4cccc(Cl)c4)c(Cl)c3)c21 ... 0

Turning to the following compound.
// query Name the reported %Inh value associated with the compound `Nc1n[nH]c2nnc(-c3ccccc3)cc12`
// result 0

---

# %Inh listing for each entry below
test system: MYO3A; details: concentration: 1 μM, replicates: in singlicate; n = 1
Respond numerically; units are % and should not be typed.

Worked examples, 3 compounds total:
1. COC(=O)c1c(-c2ccccc2)c2cc(Cl)ccc2c(=O)n1Cc1ccc(S(C)(=O)=O)cc1 ... 0
2. CC(C)N1CCC(n2cnc(-c3ccc(F)cc3)c2-c2ccnc(N)n2)CC1 ... 0
3. Oc1ccc2ncnc(Nc3ccc(OCc4ccccc4)cc3)c2c1 ... 0

Turning to the following compound.
// query Name the reported %Inh value associated with the compound `Cc1cc(N2CCC(NS(=O)(=O)c3ccc(F)cc3)CC2)nc(Nc2cccc(C#N)c2)n1.O=C(O)C(F)(F)F`
// result 0

---

system: MEK1; construct: gene MAP2K1; conditions: concentration: 1 μM, replicates: in singlicate; n = 1
OBSERVATION_TYPE: %Inh (%)
Respond numerically; units are % and should not be typed.

1) COc1ccc(NC(=O)c2ccc(-c3cc(-c4nnc(C)o4)ccc3C)cc2)cc1 ... 0

// query Name the reported %Inh value associated with the compound `Nc1nc(-c2cccnc2)c(-c2ccnc3ccccc23)s1`
// result 0

// query Name the reported %Inh value associated with the compound `Fc1ccc(-c2ncn(CCCNCc3ccccc3)c2-c2ccncc2)cc1`
// result 26

---

system: PIP5K1C; conditions: concentration: 1 μM, replicates: in singlicate; n = 1
OBSERVATION_TYPE: %Inh (%)
Respond numerically; units are % and should not be typed.

1. COc1ccc(Nc2nccc(N3CCC(NC(=O)c4cccc(NC(C)=O)c4)C3)n2)cc1 (stereo not shown) [GSK1379732] ... 70
2. O=C(Nc1n[nH]c2nc(-c3ccco3)c(Br)cc12)c1ccc(CN2CCCC2)cc1.O=C(O)[C@H](O)[C@@H](O)C(=O)O [SB-742352] ... 0
3. CN1c2ccc(-c3ccc(C(=O)NCCO)cc3)cc2-c2[nH]ncc2S1(=O)=O ... 41
4. CCCc1ccc(S(=O)(=O)NC2CCN(c3ccnc(Nc4ccc(OC)cc4)n3)C2)cc1 (stereo not shown) [GSK1379737] ... 56
5. CCC(CC)(CC)n1cnc2c(N)ncnc21 [SKF-97620] ... 9
6. CNc1nccc(-c2c(-c3ccc(F)cc3)ncn2C2CCN(C)CC2)n1 [SB-222903] ... 0
7. Cc1ccc(C)c(NC(=O)NCCNc2ccnc(Nc3ccc(F)cc3)n2)c1 [GSK1379878] ... 48
8. CSc1ccc(NC2=C(c3ccccc3Cl)C(=O)NC2=O)cc1 [SB-342411] ... 33
9. Cc1cc(N2CCC(NS(=O)(=O)c3ccc(F)cc3)CC2)nc(Nc2cccc(C#N)c2)n1.O=C(O)C(F)(F)F [GSK1653537] ... 0
10. FC(F)(F)c1ccc(-c2nn3ncccc3c2-c2ccnc(Nc3cccc(C(F)(F)F)c3)n2)cc1 [GW828205] ... 0

// query Name the reported %Inh value associated with the compound CS(=O)(=O)CCNCc1ccc(-c2ccc3ncnc(Nc4ccc(OCc5ccccc5)c(Cl)c4)c3c2)o1.Cl [GW574783]
// result 62

// query Name the reported %Inh value associated with the compound CC(C)(C)c1ccc(-n2cnc3c(N)ncnc32)cc1 [SKF-97263]
// result 0

// query Name the reported %Inh value associated with the compound `O=C(CCO)NCCn1ccc2ncnc(Nc3ccc(Oc4cccc(C(F)(F)F)c4)c(Cl)c3)c21`
// result 41

// query Name the reported %Inh value associated with the compound Cl.c1ccc(Cn2ncc3cc(Nc4ncnc5ccccc45)ccc32)cc1 [GW273749]
// result 11
